Measurement Target: steroid 5α-reductase
Test Name: in vitro steroid 5α-reductase inhibitory activity using ventral prostate tissue from male rats
Particulars: rat ventral prostate particulate; [3H]-testosterone substrate, pH 6.5, 37° C., 30 minutes
Test Readout: IC50 (nM)

compound="CC1(c2ccccc2)Oc2ccc(C(=O)c3cn(CCCC(=O)O)c4ccccc34)cc2O1 (centres unmarked) [Example 14]" experimental_result=21.1
compound="O=C(O)CCCn1cc(C(=O)c2ccc3c(c2)OC2(CCCc4ccccc42)O3)c2ccccc21 (centres unmarked) [Example 10]" experimental_result=7.91
compound="CCCCC1(c2ccc(CCC)cc2)Oc2ccc(C(=O)c3cn(CCCC(=O)O)c4ccccc34)cc2O1 (centres unmarked) [Example 8]" experimental_result=2.9
compound="CCCc1ccc(C2(CC)Oc3ccc(C(=O)c4cn(CCCC(=O)O)c5ccccc45)cc3O2)cc1 (centres unmarked) [Example 27]" experimental_result=1.41
compound="O=C(O)CCCn1cc(C(=O)Cc2ccc3c(c2)OC(c2ccc(Cl)cc2)(c2ccc(Cl)cc2)O3)c2ccccc21 [Example 37]" experimental_result=100
compound="CC(C)Cc1ccc(C2(C)Oc3ccc(C(=O)c4cn(CCCC(=O)O)c5ccccc45)cc3O2)cc1 (single isomer, unassigned; (-)) [Example 4]" experimental_result=10.3
compound="Cc1c(C(=O)c2ccc3c(c2)OC(C)(c2ccc(CC(C)C)cc2)O3)c2ccccc2n1CCCC(=O)O (centres unmarked) [Example 40]" experimental_result=260
compound="O=C(O)CCCn1cc(C(=O)Cc2ccc3c(c2)OC(c2ccccc2)(c2ccccc2)O3)c2ccccc21 [Example 35]" experimental_result=42.6

---

Measurement Target: steroid 5α-reductase
Test Name: in vitro steroid 5α-reductase inhibitory activity using ventral prostate tissue from male rats
Particulars: rat ventral prostate particulate; [3H]-testosterone substrate, pH 6.5, 37° C., 30 minutes
pIC50: −log10 of the molar value.
Test Readout: pIC50

compound=O=C(O)CCCn1cc(C(=O)c2ccc3c(c2)OC(c2cccs2)(c2cccs2)O3)c2ccccc21 test_readout=pIC50 experimental_result=8.28
compound=O=C(O)CCCCn1cc(C(=O)c2ccc3c(c2)OC(c2ccccc2)(c2ccccc2)O3)c2ccccc21 test_readout=pIC50 experimental_result=6.58
compound="O=C(O)CCCn1cc(C(=O)c2ccc3c(c2)OC2(CCC(c4ccccc4)C2)O3)c2ccccc21 (stereo not shown)" test_readout=pIC50 experimental_result=8.25
compound="COc1ccc(C2(C)Oc3ccc(C(=O)c4cn(CCCC(=O)O)c5ccccc45)cc3O2)cc1 (stereo not shown)" test_readout=pIC50 experimental_result=8.44
compound=O=C(O)CCCn1cc(C(=O)c2ccc3c(c2)OC(c2ccc(F)cc2)(c2ccc(F)cc2)O3)c2ccccc21 test_readout=pIC50 experimental_result=7.97
compound=Cc1c(C(=O)c2ccc3c(c2)OC(c2ccccc2)(c2ccccc2)O3)c2ccccc2n1CCCC(=O)O test_readout=pIC50 experimental_result=6.57
compound="CC(C)Cc1ccc(C2(C)Oc3ccc(C(=O)c4cn(CCCC(=O)O)c5ccccc45)cc3O2)cc1 (racemic) [Example 2]" test_readout=pIC50 experimental_result=7.94

---

Measurement Target: steroid 5α-reductase
Test Name: in vitro steroid 5α-reductase inhibitory activity using ventral prostate tissue from male rats
Particulars: rat ventral prostate particulate; [3H]-testosterone substrate, pH 6.5, 37° C., 30 minutes
Recorded log10 IC50, one value per entry.
Test Readout: log10 IC50 (log10 of the value in µM)

compound=O=C(O)CCCn1cc(C(=O)c2ccc3c(c2)OC(c2ccc(Cl)cc2)(c2ccc(Cl)cc2)O3)c2ccccc21 experimental_result=-1.81
compound="CC1(c2ccc(OCc3ccccc3)cc2)Oc2ccc(C(=O)c3cn(CCCC(=O)O)c4ccccc34)cc2O1 (stereo not shown)" experimental_result=-1.17
compound=CCCc1ccc(C2(c3ccc(CCC)cc3)Oc3ccc(C(=O)c4cn(CCCC(=O)O)c5ccccc45)cc3O2)cc1 experimental_result=-1.47
compound="CCCc1ccc(C2(c3ccc(OC)cc3)Oc3ccc(C(=O)c4cn(CCCC(=O)O)c5ccccc45)cc3O2)cc1 (stereo not shown)" experimental_result=-2.11
compound=O=C(O)CCCn1cc(C(=O)c2ccc3c(c2)OC(c2ccccc2)(c2ccccc2)O3)c2ccccc21 experimental_result=-2.57
compound="CC1(C2CCCCC2)Oc2ccc(C(=O)c3cn(CCCC(=O)O)c4ccccc34)cc2O1 (stereo not shown)" experimental_result=-1.96
compound="CC(C)Cc1ccc(C2(C)Oc3ccc(CC(=O)c4cn(CCCC(=O)O)c5ccccc45)cc3O2)cc1 (stereo not shown)" experimental_result=-0.60
